# protocol-text: Clearance of compound after iv administration of 20 mg/kg dose in rat
# Type: ADME, organism-based
# Design: dose 20 mg/kg, route intravenous
# details: in vivo
value-type: clearance

[
  {
    "structure-smiles": "C[C@@H](O)[C@H]1C(=O)N2C(C(=O)O)=C(S[C@@H]3CN[C@H](CSc4cnns4)C3)[C@H](C)[C@H]12",
    "assay-result": "10.2 mL/min/kg"
  }
]

----------
# Test system: Pseudomonas aeruginosa
# protocol-text: In vitro antibacterial activity against Pseudomonas aeruginosa 1771M
# Type: functional

[
  {
    "structure-smiles": "C[C@@H](O)[C@H]1C(=O)N2C(C(=O)O)=C(S[C@@H]3CN[C@H](CSc4nncn4C)C3)[C@H](C)[C@H]12",
    "MIC [mg/L]": 0.195
  },
  {
    "structure-smiles": "C[C@@H](O)[C@H]1C(=O)N2C(C(=O)O)=C(S[C@@H]3CN[C@H](C(=O)N(C)C)C3)[C@H](C)[C@H]12",
    "MIC [mg/L]": 0.049
  },
  {
    "structure-smiles": "CNC(=O)c1cccnc1SC[C@@H]1C[C@H](SC2=C(C(=O)O)N3C(=O)[C@H]([C@@H](C)O)[C@H]3[C@H]2C)CN1",
    "MIC [mg/L]": 1.56
  },
  {
    "structure-smiles": "C[C@@H](O)[C@H]1C(=O)N2C(C(=O)O)=C(S[C@@H]3CN[C@H](CSc4ncccn4)C3)[C@H](C)[C@H]12",
    "MIC [mg/L]": 0.391
  },
  {
    "structure-smiles": "Cc1nnc(SC[C@@H]2C[C@H](SC3=C(C(=O)O)N4C(=O)[C@H]([C@@H](C)O)[C@H]4[C@H]3C)CN2)s1",
    "MIC [mg/L]": 0.195
  },
  {
    "structure-smiles": "C[C@@H](O)[C@H]1C(=O)N2C(C(=O)O)=C(S[C@@H]3CN[C@H](CSc4nnnn4C)C3)[C@H](C)[C@H]12",
    "MIC [mg/L]": 0.195
  },
  {
    "structure-smiles": "C[C@@H](O)[C@H]1C(=O)N2C(C(=O)O)=C(S[C@@H]3CN[C@H](CSc4nccc(C(F)(F)F)n4)C3)[C@H](C)[C@H]12",
    "MIC [mg/L]": 0.781
  }
]
